# tested.on: 5-hydroxytryptamine receptor 1A (Rattus norvegicus, UniProt P19327)
# Sequence (P19327 whole entry): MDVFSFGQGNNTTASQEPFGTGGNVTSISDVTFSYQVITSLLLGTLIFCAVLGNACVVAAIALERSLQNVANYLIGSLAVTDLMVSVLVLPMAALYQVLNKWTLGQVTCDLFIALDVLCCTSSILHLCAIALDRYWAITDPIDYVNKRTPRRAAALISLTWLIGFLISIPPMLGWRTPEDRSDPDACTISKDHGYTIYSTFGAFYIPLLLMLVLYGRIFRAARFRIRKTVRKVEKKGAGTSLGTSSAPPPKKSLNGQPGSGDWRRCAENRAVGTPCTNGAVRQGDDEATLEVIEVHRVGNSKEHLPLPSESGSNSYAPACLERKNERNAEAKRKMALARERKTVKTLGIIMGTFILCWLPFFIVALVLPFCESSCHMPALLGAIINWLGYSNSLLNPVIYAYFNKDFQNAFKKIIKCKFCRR
Ki strictly under 40 nM means MET; at 40 nM or over means NOT MET.

CCCN(CCC)[C@H]1CCc2cccc(-c3cccs3)c2C1 = MET

Problem: Consider the molecule "CCCN(CCC)[C@@H]1CCc2cccc(-c3cccs3)c2C1" . Is its Ki strictly less than 40 nM?
Solution: MET

Problem: Strictly below 40 nM in Ki? "CCCN(CCC)[C@@H]1CCc2cccc(-c3ccco3)c2C1"
Solution: MET

Problem: Given the entry "CCCN(CCCCN1C(=O)CC2(CCCC2)CC1=O)[C@@H]1CCc2c(F)ccc(C(C)=O)c2C1" , would its reported Ki be below 40 nM?
Solution: MET
